Data credit: ChEMBL document CHEMBL1201862

Test system: HL-60
Test: NCI tumour cell line growth inhibition, 48 h
Calls of active or inactive are those of the source. Rule as the data show it: active = GI50 up to about 1.1 µM and inactive = higher. Where a SMILES comes first, the peptide text is derived from it. The star is where a group is joined. X33 = O=C(c1ccc(-c2ccc(Cl)cc2Cl)o1)*
Choose the fitting class; nothing outside YES for active, NO for inactive is accepted.

input: What did the test return for Cc1[nH]c2ccccc2c1C(=O)CC1(O)C(=O)Nc2c(Cl)cc(Cl)cc21 (centres undefined) ?
output: NO

input: Look up the recorded call for N=C(N)NS(=O)(=O)c1ccc(NC(=O)c2ccc3nc4ccccc4c(Nc4ccc(S(=O)(=O)N=C(N)N)cc4)c3c2)cc1 in this test.
output: NO

input: Could you kindly confirm the outcome this assay logged for COc1ccc2c3c(ccc2c1)NC(C(=O)O)CC3 (centres undefined) ?
output: NO

input: Per the assay record, what outcome was assigned to COc1ccc(CC2C(=O)NC(C)C(=O)N(C)C3C(=O)N(C)C(Cc4ccc(O)c(c4)Oc4ccc(cc4)C3O)C(=O)NC(C)C(=O)NC(C)C(=O)N2C)cc1 (centres undefined) ?
output: YES

input: Record request — test call for NNC(=O)CC(=O)Nc1ccc(C(=O)O)cc1
output: NO

input: Please state the recorded outcome for this compound: CCC(C)C(NC(=O)CNC(=O)C(Cc1ccccc1)NC(=O)C1CCCN1C(=O)c1ccc(-c2ccc(Cl)cc2Cl)o1)C(=O)OC (centres undefined) (X33-PFGI-OMe; configuration not given here)
output: NO

input: I would be grateful if you could indicate the recorded call for O=[N+]([O-])c1ccc(C2=Nn3c(nnc3-c3ccccc3)SC2)o1 .
output: NO

input: Which outcome was entered for the compound CC(C)=CC(=O)CC(=O)C(=O)Nc1ccc(C)c(C)c1 in this test?
output: NO

input: What was the test verdict on Cc1noc2c1C(=O)CCC2 ?
output: NO

* * *

For each record, write down the corresponding GI50.
Tested on: M19-MEL
Assay: NCI tumour cell line growth inhibition, 48 h
Active and inactive are the calls of the source. Rule as the data show it: active = GI50 up to about 1.1 µM and inactive = higher.

input: Give its GI50 value. Item: CC1=C(C(=O)Nc2ccccc2C)C(c2ccccc2C)C(C(=O)Nc2ccccc2C)=C(C)N1
output: 21.7 µM (inactive)

input: Form field: reported GI50 of BrC/C=C/C[P+](c1ccccc1)(c1ccccc1)c1ccccc1
output: 10.8 µM (inactive)

input: What value of measured GI50 is listed for COC(=O)c1c(O)ccc(O)c1C(C(C)=O)C(C)=O ?
output: > 100 µM (inactive)

input: GET /values?readout=GI50&item= C[N+]1=c2c3cccc4cccc(c(=O)n2CCC1)c43
output: 17.9 µM (inactive)

input: Which measured GI50 value corresponds to O=C(c1ccccc1)C1OC12C(=O)Nc1c(Cl)cc(Cl)cc12 (stereo not drawn) ?
output: 27 µM (inactive)

input: Which value of GI50 has been reported for C/C=N\N1C(=O)c2ccccc2C1=O in the records?
output: > 100 µM (inactive)

input: What does the data say about its GI50? Entry: C1=CC=C2NCCSCC/N=C3/C=CC=CC=C3NCCSCC/N=C\2C=C1
output: > 100 µM (inactive)

input: Which GI50 is listed for Oc1cc(-n2cccn2)c(O)cc1-n1cccn1 ?
output: 23.7 µM (inactive)

input: I have this compound here, Cc1noc2c1C(=O)CCC2 , and I need its recorded GI50.
output: > 100 µM (inactive)

input: What GI50 value was documented for this compound, O=C1NC(=S)NC(=O)C1=Cc1ccc[nH]1 ?
output: 13.4 µM (inactive)

input: Record request: GI50 value, item C=CCCC(OCOCCOC)c1cc(C)c(O[Si](C)(C)C(C)(C)C)c(C)c1 (stereo not drawn)
output: 17.9 µM (inactive)

input: GI50 lookup needed for CC12CC(=O)NN=C1c1ccccc1C2 (stereo not drawn) , thanks.
output: > 100 µM (inactive)

input: Would you kindly share the measured GI50 for COc1ccc(/C(=N/O)C(c2ccc(OC)cc2)C2C(=O)Oc3ccccc32)cc1 (stereo not drawn) ?
output: 68.5 µM (inactive)

input: Requested read-out: GI50. Entry: O=C(Cc1nc(-c2ccccc2)cc(=O)n1-c1ccccc1Cl)c1ccncc1
output: > 100 µM (inactive)

input: Item C=C1C(=O)O[C@H]2C1[C@H](OC(=O)/C(C)=C\COC(C)=O)C[C@]1(CO1)[C@@H]1[C@H](O)[C@H]3O[C@@]3(C)[C@@H]12 (stereo partly drawn) has what recorded GI50?
output: 15.7 µM (inactive)

input: Reported GI50, compound CC(C)=CC(=O)CC(=O)C(=O)Nc1ccc(C)c(C)c1 : ____
output: > 100 µM (inactive)

input: Which measured GI50 value corresponds to COC(=O)CCC1=NOC(CC2CC(CCC(=O)OC)=NO2)C1 (stereo not drawn) ?
output: > 100 µM (inactive)

input: # input compound: CCCC/C(C)=N/NC(N)=S ; wanted: its GI50
output: > 100 µM (inactive)

input: # query: GI50 of entry O=[N+]([O-])c1ccc(C2=Nn3cnnc3SC2)o1
output: 4.02 µM (inactive)

input: Name the recorded GI50 for O=C(N/N=C(\c1nc2ccc(Cl)cc2nc1O)C(O)c1ccccc1Cl)c1ccncc1 (stereo not drawn) .
output: > 100 µM (inactive)

input: Sample C=C1C(OC(C)=O)CC(OC(C)=O)C2(C)C(OC(C)=O)C(OC(C)=O)C3=C(C)C(OC(=O)/C=C/c4ccccc4)CC(C(OC(C)=O)C12)C3(C)C (stereo not drawn) — what was its GI50?
output: > 100 µM (inactive)

input: For COc1cc(OC)c([C@@H]2OC(=O)C3C2C(=O)O[C@H]3c2cc(OC)c(OC)cc2OC)cc1OC (stereo partly drawn) , what is its reported GI50?
output: 70.1 µM (inactive)

input: # get_value(readout='GI50', item= Cc1c(N)nc(C(CC(N)=O)NCC(N)C(N)=O)nc1C(=O)NC(C(=O)NC(C)C(O)C(C)C(=O)NC(C(=O)NCCc1nc(-c2nc(C(=O)NCCCNCCCCN)cs2)cs1)C(C)O)C(OC1OC(CO)C(O)C(O)C1OC1OC(CO)C(O)C(OC(N)=O)C1O)c1c[nH]cn1 (stereo not drawn) )
output: > 10 µM (inactive)

input: Dear colleague, I am looking for the recorded GI50 of the following compound: NNC(=O)N/N=C(/CC1(O)C(=O)Nc2ccc(Br)cc21)c1ccccc1 (stereo not drawn)
output: 32.4 µM (inactive)

input: Form field: reported GI50 of O=C1C2=C(N[C@@H](c3ccccc3)[C@H](c3ccccc3)N2)C(=O)c2ccccc21
output: > 100 µM (inactive)

input: What value of measured GI50 is listed for CN(C)CCC1(C2=CCCC2)CC/C(=C\c2ccccc2Cl)C1=O (stereo not drawn) ?
output: 33 µM (inactive)

input: Requested read-out: GI50. Entry: CCCN(CCCCC(NC(C)=O)C(=O)NCc1ccccc1)C(=O)NC (stereo not drawn)
output: > 100 µM (inactive)

input: Give its GI50 value. Item: Cc1nc(N)nc(N)c1CCCCc1ccccc1
output: 12.4 µM (inactive)

input: What does the record list as GI50 for Cc1cc2nc3c(=O)[nH]c(=O)nc-3n(CC(O)C(O)C(O)CO)c2cc1N (stereo not drawn) ?
output: > 100 µM (inactive)

input: Would you mind telling me what GI50 value was observed for C=C[Si](C)(C)COC(=O)/C(C#N)=C/C=C/c1ccccc1 ?
output: 99.5 µM (inactive)

input: Item under review: COc1cc2ccc1-c1cc(ccc1O)CC1c3cc4c(cc3CCN1C)Oc1c(OC)cc3c(c1O4)C(C2)N(C)CC3 (stereo not drawn) . Reported GI50?
output: 1.88 µM (inactive)

input: # get_value(readout='GI50', item= Cc1nc2ccccc2nc1CC(=O)C(=O)Nc1ccc(Cl)cc1Cl )
output: > 100 µM (inactive)

input: For the compound shown here, CC1OC(OC2C(CO)OC(O[C@H]3CC[C@@]4(C)C(=CC[C@H]5[C@@H]6C[C@@H]7O[C@]8(CC[C@@H](C)CN8)[C@@H](C)[C@@H]7[C@@]6(C)CC[C@@H]54)C3)C(O)C2O)C(O)C(O)C1O (stereo partly drawn) , give the reported GI50.
output: > 100 µM (inactive)

input: Can you share its GI50? I mean this compound: Cc1[nH]c2ccccc2c1C(=O)CC1(O)C(=O)Nc2c(Cl)cc(Cl)cc21 (stereo not drawn)
output: 9.31 µM (inactive)

input: Consider the compound COC(=O)C(=NNc1ccccc1[N+](=O)[O-])C(=O)OC and give its measured GI50.
output: > 100 µM (inactive)

input: Give the measured GI50 of N#CC(c1nc2ccccc2nc1Cl)S(=O)(=O)c1ccccc1 (stereo not drawn) .
output: > 100 µM (inactive)

input: Which measured GI50 value corresponds to COC(=O)C1C(C(=O)OC)C2C(=O)C3C(C(=O)OC)C(C(=O)OC)C3C(=O)C12 (stereo not drawn) ?
output: > 100 µM (inactive)

input: # query: GI50 of entry C=C1C(=O)OC2/C=C(\C)CC(O)/C=C(/CO)CC(OC(=O)/C(C)=C/C)C12 (stereo not drawn)
output: 23 µM (inactive)
